Measured values drawn from patent US6444688B1 for this set.

Answer each item with its documented Uterine EPO (Vmax).
tested on: uterine eosinophil peroxidase activity; experiment: Uterine eosinophil peroxidase (EPO) assay, four day dosing; type: in vivo, Sprague Dawley rats; details: OVX rats, oral, daily for 4 days, dose 10 mg/kg
Marks after values point to notes of the source that are not given here.

Value of measured Uterine EPO (Vmax) for the entry "N#CCOc1ccc(C(=O)c2c(-c3ccc(O)cc3)sc3cc(O)ccc23)cc1" : 145.8* Vmax

Value of measured Uterine EPO (Vmax) for the entry "CN(C)C(=O)COc1ccc(C(=O)c2c(-c3ccc(O)cc3)sc3cc(O)ccc23)cc1" : 122.3* Vmax

Value of measured Uterine EPO (Vmax) for the entry CC(C)(C)C(=O)N1CCCCC1COc1ccc(C(=O)c2c(-c3ccc(O)cc3)sc3cc(O)ccc23)cc1 (stereo not shown) : 69.5* Vmax

Value of measured Uterine EPO (Vmax) for the entry "CC(=O)N(CCOc1ccc(C(=O)c2c(-c3ccc(O)cc3)sc3cc(O)ccc23)cc1)C1CCCCC1" : 29.3* Vmax
